The origin of these recorded values is patent EP0478545B1.

# test_method_notes: physchem
# experimental_context: pH 7.4
readout_type: logP
# output: bare number, no unit

Query block: Given the compound Nc1n[n+]([O-])c2ccccc2[n+]1[O-] , what is its reported logP?
Result block: -0.32

====

# test_method_notes: Determination of LD50
# experimental_context: mouse, in vivo; Balb/c female mice 3-5 months of age; ip (or iv) injection in physiological saline
readout_type: LD50 (µmol/kg)
Use µmol/kg as the unit, but write only the number.

Query block: Given the compound Nc1n[n+]([O-])c2ccccc2[n+]1[O-] , what is its reported LD50?
Result block: 500

Query block: Given the compound Nc1n[n+]([O-])c2cc([N+](=O)[O-])ccc2[n+]1[O-] , what is its reported LD50?
Result block: 1000
